# credit: PubChem BioAssay (NCATS)

biological target: Mitogen-activated protein kinase 10 (Mus musculus) (UniProt Q61831); experiment: JNK3 AlphaScreen Assay (AID 530); conditions: JNK3 lysate, c-Jun phosphorylation; series mostly up to 11.4 µM;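 note: kinase came from lysate of stimulated human HepG2 cells; signal reports phosphorylation of biotinylated GST-cJun 1-79 at Ser73 with 10 µM ATP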
Records with an inconclusive call do not appear. Activity calls are given as the source filed them. Calls come from the whole dose curve; as a rule, active = well fitted curve in either direction with a large enough effect (not every such curve was filed as active); inconclusive = small, poorly fitted or top-dose-only effect, or another doubt; inactive = flat fitted curve, though single readings scatter.
recordedEndpoint: outcome

| compoundStructureString | recordedEndpoint | experimentalResult |
| --- | --- | --- |
| CCCCCCCCCC[Si](C)(C)CCC(=O)N[C@@H](Cc1ccc(C)cc1)c1ccccc1 | outcome | inactive |
| c1ccc2c(c1)-c1nc3ccccc3cc1[C@H]2N1CCOCC1 | outcome | inactive |
| CSc1nnnc2ccccc12 | outcome | inactive |
